Attribute: zone of inhibition at 20 µg/disc
System: Fusarium oxysporum
ASSAY_NAME: Antifungal activity against Fusarium oxysporum at 20 ug after 48 hrs by cup diffusion method
Type: functional
EXPERIMENTAL_PARAMETERS: read-out: IZ
State just the number; it will be interpreted in mm.

Here is how some compounds turned out for zone of inhibition at 20 µg/disc.
COMPOUND: Cc1ccc(C2=NOC(CCl)CC2)cc1 (configuration not stated)
SYSTEM_NAME: Fusarium oxysporum
QUANTITY_NAME: zone of inhibition at 20 µg/disc
UNIT_STRING: mm
RESULT_VALUE: 20.8
--
COMPOUND: OCC1CCC(c2ccc3c(c2)CCC3)=NO1 (configuration not stated)
SYSTEM_NAME: Fusarium oxysporum
QUANTITY_NAME: zone of inhibition at 20 µg/disc
UNIT_STRING: mm
RESULT_VALUE: 18.8
--
COMPOUND: COc1ccc(C2=NOC(CO)CC2)cc1OC (configuration not stated)
SYSTEM_NAME: Fusarium oxysporum
QUANTITY_NAME: zone of inhibition at 20 µg/disc
UNIT_STRING: mm
RESULT_VALUE: 16.5
--
COMPOUND: COc1ccc(C2=NOC(C#N)CC2)cc1OC (configuration not stated)
SYSTEM_NAME: Fusarium oxysporum
QUANTITY_NAME: zone of inhibition at 20 µg/disc
UNIT_STRING: mm
RESULT_VALUE: 15.5

Query string: Consider the compound COc1ccc(C2=NOC(CCl)CC2)cc1OC (configuration not stated) and give its measured zone of inhibition at 20 µg/disc.
Result string: 28.7

Query string: Continue with COc1ccc(C2=NOC(Cc3ccc4c(c3)OCO4)CC2)cc1 (configuration not stated)
Result string: 16.8

Query string: Continue with COc1ccc(C2=NOC(Cc3ccc4c(c3)OCO4)CC2)cc1OC (configuration not stated)
Result string: 15.8

* * *

Attribute: MIC
Test system: Escherichia coli
ASSAY_NAME: Antibacterial activity against Escherichia coli MTCC 443 after 24 hrs by cup diffusion method
Assay type: functional
EXPERIMENTAL_PARAMETERS: MTCC 443, 24 h
Your answer should be a number followed by the unit of measure.

Here is how some compounds turned out for MIC.
COMPOUND: N#CC1CCC(c2ccc3c(c2)CCC3)=NO1 (stereo unspecified)
QUANTITY_NAME: MIC
RESULT_VALUE: 25 mg/L
//
COMPOUND: COc1ccc(C2=NOC(Cc3ccc4c(c3)OCO4)CC2)cc1OC (stereo unspecified)
QUANTITY_NAME: MIC
RESULT_VALUE: 25 mg/L

Query string: Consider the compound ClCC1CCC(c2ccc3c(c2)CCC3)=NO1 (stereo unspecified) and give its measured MIC.
Result string: 20 mg/L

Query string: Continue with CCOC(=O)C1CCC(c2ccc3c(c2)CCC3)=NO1 (stereo unspecified)
Result string: 30 mg/L

Query string: Continue with COc1ccc(C2=NOC(C#N)CC2)cc1OC (stereo unspecified)
Result string: 25 mg/L

Query string: Continue with Cc1ccc(C2=NOC(CO)CC2)cc1C (stereo unspecified)
Result string: 25 mg/L

Query string: Continue with COc1ccc(C2=NOC(C#N)CC2)cc1 (stereo unspecified)
Result string: 25 mg/L

Query string: Continue with CCOC(=O)C1CCC(c2ccc(C)c(C)c2)=NO1 (stereo unspecified)
Result string: 20 mg/L

Query string: Continue with OCC1CCC(c2ccc3c(c2)CCC3)=NO1 (stereo unspecified)
Result string: 35 mg/L

Query string: Continue with COc1ccc(C2=NOC(CO)CC2)cc1 (stereo unspecified)
Result string: 35 mg/L

Query string: Continue with Cc1ccc(C2=NOC(CO)CC2)cc1 (stereo unspecified)
Result string: 35 mg/L

Source listed as ChEMBL document CHEMBL1152843.
